target: human MDM2 (residues 2–125) (Homo sapiens); construct: human MDM2 (residues 2–125); made in house; host or cells: E. coli BL21 (DE3); assay: Isothermal titration calorimetry of p53-peptide binding to MDM2; settings: ITC, 15 °C, 50 mM Tris-HCl pH 8.0, 250 mM NaCl, 0.5 mM TCEP; peptide titrated into MDM2; repeated twice
Sequence (Q00987 2-125): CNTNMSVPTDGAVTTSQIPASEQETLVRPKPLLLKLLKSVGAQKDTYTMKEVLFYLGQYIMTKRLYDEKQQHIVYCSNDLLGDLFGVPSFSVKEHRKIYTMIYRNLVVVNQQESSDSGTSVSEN
Entries and their measured ΔH of binding follow.
observation-type: ΔH of binding (kcal/mol)

compound	result-units	assay-result
CC(=O)N[C@@H](CCC(=O)O)C(=O)N[C@@H](CC(=O)O)C(=O)N[C@@H](Cc1ccccc1)C(=O)N[C@@H](CC(=O)O)C(=O)N[C@@H](CC(=O)O)C(=O)N[C@@H](CC(C)C)C(=O)N[C@@H](Cc1c[nH]c2ccccc12)C(=O)N[C@@H](CCCCN)C(=O)N[C@@H](CC(C)C)C(=O)N[C@@H](CC(C)C)C(=O)N1CCC[C@H]1C(=O)N[C@@H](CCC(=O)O)C(=O)N[C@@H](CC(N)=O)C(N)=O	kcal/mol	-9.95
CC(=O)N[C@@H](CCC(=O)O)C(=O)N[C@@H](CC(=O)O)C(=O)N[C@@H](Cc1ccccc1)C(=O)N[C@@H](CCC(=O)O)C(=O)N[C@@H](CC(=O)O)C(=O)N[C@@H](CC(C)C)C(=O)N[C@@H](Cc1c[nH]c2ccccc12)C(=O)N[C@@H](CCCCN)C(=O)N[C@@H](CC(C)C)C(=O)N[C@@H](CC(C)C)C(=O)N1CCC[C@H]1C(=O)N[C@@H](CCC(=O)O)C(=O)N[C@@H](CC(N)=O)C(N)=O	kcal/mol	-9.90
CC(=O)N[C@@H](CCC(=O)O)C(=O)N[C@@H](CC(=O)O)C(=O)N[C@@H](Cc1ccccc1)C(=O)N[C@@H](CO)C(=O)N[C@@H](CC(=O)O)C(=O)N[C@@H](CC(C)C)C(=O)N[C@@H](Cc1c[nH]c2ccccc12)C(=O)N[C@@H](CCCCN)C(=O)N[C@@H](CC(C)C)C(=O)N[C@@H](CC(C)C)C(=O)N1CCC[C@H]1C(=O)N[C@@H](CCC(=O)O)C(=O)N[C@@H](CC(N)=O)C(N)=O	kcal/mol	-18.39
CC(=O)N[C@@H](CCC(=O)O)C(=O)N[C@@H](CCC(=O)O)C(=O)N[C@@H](Cc1ccccc1)C(=O)N[C@@H](CO)C(=O)N[C@@H](CC(=O)O)C(=O)N[C@@H](CC(C)C)C(=O)N[C@@H](Cc1c[nH]c2ccccc12)C(=O)N[C@@H](CCCCN)C(=O)N[C@@H](CC(C)C)C(=O)N[C@@H](CC(C)C)C(=O)N1CCC[C@H]1C(=O)N[C@@H](CCC(=O)O)C(=O)N[C@@H](CC(N)=O)C(N)=O	kcal/mol	-7.02

---

assay: Far-UV CD of isolated peptides in aqueous solution (helicity); type: physicochemical; settings: far-UV CD, 5 °C, 50 mM phosphate pH 6.8

molecule	molar ellipticity at 222 nm, [Θ]222
CC(=O)N[C@@H](CCC(=O)O)C(=O)N[C@H](C(=O)N[C@@H](Cc1ccccc1)C(=O)N[C@@H](CC(=O)O)C(=O)N[C@@H](CC(=O)O)C(=O)N[C@@H](CC(C)C)C(=O)N[C@@H](Cc1c[nH]c2ccccc12)C(=O)N[C@@H](CCCCN)C(=O)N[C@@H](CC(C)C)C(=O)N[C@@H](CC(C)C)C(=O)N1CCC[C@H]1C(=O)N[C@@H](CCC(=O)O)C(=O)N[C@@H](CC(N)=O)C(N)=O)[C@@H](C)O [P53-D20]	−2811 deg cm^2 dmol^−1
CC(=O)N[C@@H](CCC(=O)O)C(=O)N[C@@H](CCC(=O)O)C(=O)N[C@@H](Cc1ccccc1)C(=O)N[C@@H](CO)C(=O)N[C@@H](CC(=O)O)C(=O)N[C@@H](CC(C)C)C(=O)N[C@@H](Cc1c[nH]c2ccccc12)C(=O)N[C@@H](CCCCN)C(=O)N[C@@H](CC(C)C)C(=O)N[C@@H](CC(C)C)C(=O)N1CCC[C@H]1C(=O)N[C@@H](CCC(=O)O)C(=O)N[C@@H](CC(N)=O)C(N)=O [P53-E18]	−2380 deg cm^2 dmol^−1
CC(=O)N[C@@H](CCC(=O)O)C(=O)N[C@H](C(=O)N[C@@H](Cc1ccccc1)C(=O)N[C@@H](CCC(=O)O)C(=O)N[C@@H](CC(=O)O)C(=O)N[C@@H](CC(C)C)C(=O)N[C@@H](Cc1c[nH]c2ccccc12)C(=O)N[C@@H](CCCCN)C(=O)N[C@@H](CC(C)C)C(=O)N[C@@H](CC(C)C)C(=O)N1CCC[C@H]1C(=O)N[C@@H](CCC(=O)O)C(=O)N[C@@H](CC(N)=O)C(N)=O)[C@@H](C)O [P53-E20]	−2911 deg cm^2 dmol^−1
